All values here come from patent US11013783B2.

- System: NFκB signaling pathway
- MEASUREMENT DESCRIPTION: NFκB luciferase reporter system in HEK 293T cells transfected with pCMV plasmids (Carma-1-dependent activation)
- Type: cell-based, human
- TEST SETTINGS: HEK 293T NFκB reporter; proteins cloned in 3× Flag (C-term) pCMV vector; table I
EXPERIMENTAL ENDPOINT: NFκB signaling pathway inhibition (%)
Report as: number unit

Reference set (2 entries):
| MOLECULE | VALUE OBSERVED |
| --- | --- |
| KLE1255: ortholog of ZP05614546.1 from strain KLE1255 (protein, listed as Faecalibacterium prausnitzii) MMMPANFSAVAENEMTYVVGGSLVDVLAPAMTTANWQNVSANVIKIVGNSFLAKYTNDVLAQLFDGNYVPGDVIGYSVKNLDKAYNKGYGTFGGNWGFAVGALNAGMQILGGLSAIYTLGSSSIGLETKSGTLPTL | 72 ± 1% |
| ZP05614546.1: conserved hypothetical protein of F. prausnitzii strain A2-165 (protein, listed as Faecalibacterium prausnitzii) MMMPANYSVIAENEMTYVNGGANFIDAIGAVTAPIWTLDNVKTFNTNIVTLVGNTFLQSTINRTIGVLFSGNTTWKEVGNIGKNLFGTNVKGNPIEKNNFGDYAMNALGIAAAVYNLGVAPTKNTVKETEVKFTV | 58 ± 6% |

Prompt: Recorded NFκB signaling pathway inhibition (%) of SL3/3: ortholog of ZP05614546.1 from strain SL3/3 (protein, listed as Faecalibacterium prausnitzii) MMMPANFSAVSENEMTYVMGGSVADYLAPAMGAAQWQNFHKNLITIVGNKYVQGFLDNTVGAVFSGTWTPGDGLTGFGGQFSKIWKDNYTDNVTGESTGAQKFGYGALGVVNSILNVAGNLAAIYNLGFGTAKNIVGEGVYKA , please.
Response: 86 ± 5%
